Data provenance: patent US20070032417A1

TARGET_SYSTEM: GST tagged Bcl w delta C29 protein (UniProt Q92843)
METHOD_SUMMARY: AlphaScreen competition, GST detection; competitor biotinylated Bim BH3-26 peptide
Bridges are numbered along the chain shown (N, C = ends).
MEASUREMENT_TYPE: IC50 (nM)
Give the number; nM is assumed, so skip it.

Recorded IC50 for Ac-IWIAQELRRIGDEFNA-NH2 (linker 6-13 via ‑NHCH2C(═O)(CH2)2NH2‑) , please?
0.3
